Recorded IC50 for the following compounds
target: PDE4B2 (Homo sapiens); construct: made in house; host or cells: SF21 insect cells (baculovirus prepared in SF9 cells, pCR-Bac vector); test: Inhibition of PDE4 activity, [3H]cAMP SPA enzyme assay with recombinant PDE4B2; assay type: biochemical; conditions: recombinant PDE4B2 (GB no. M97515) expressed in SF21 insect cells; 0.5 μM cAMP; 15 min at 37° C.; read-out: PDE4 Inhibition [measured as −logIC50 (mol/l)] (converted)
Sequence (Q07343 1-564 isoform Q07343-2): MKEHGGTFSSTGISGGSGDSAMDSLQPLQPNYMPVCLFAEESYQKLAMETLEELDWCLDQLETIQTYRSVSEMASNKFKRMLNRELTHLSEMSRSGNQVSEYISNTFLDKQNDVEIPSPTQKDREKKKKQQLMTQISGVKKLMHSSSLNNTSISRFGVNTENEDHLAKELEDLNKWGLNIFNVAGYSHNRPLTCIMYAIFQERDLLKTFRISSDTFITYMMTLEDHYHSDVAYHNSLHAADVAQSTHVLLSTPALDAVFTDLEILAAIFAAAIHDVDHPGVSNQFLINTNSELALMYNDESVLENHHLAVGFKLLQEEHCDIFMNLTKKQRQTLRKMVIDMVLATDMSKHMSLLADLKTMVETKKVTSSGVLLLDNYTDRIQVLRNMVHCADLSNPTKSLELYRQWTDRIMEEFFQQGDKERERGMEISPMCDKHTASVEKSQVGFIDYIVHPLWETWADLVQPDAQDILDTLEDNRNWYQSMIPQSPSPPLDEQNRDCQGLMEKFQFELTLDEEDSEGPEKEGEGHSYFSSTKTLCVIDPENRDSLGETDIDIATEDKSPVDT
Give the number first and the unit second.

// known answers, use as guide
# molecule, outcome_measure, result
rows = [
    ("CCOc1cc2c(cc1OC)C(c1ccc(C(=O)OC)cc1)=N[C@@H]1CCOC[C@H]21", "IC50", "20 nM"),
    ("CCOc1cc2c(cc1OC)C(c1ccc(C(=O)N3CCOCC3)cc1)=N[C@@H]1CCOC[C@H]21", "IC50", "39.8 nM"),
    ("CCOc1cc2c(cc1OC)C(c1ccc(C(=O)N3CCN(C)CC3)cc1)=N[C@@H]1CCOC[C@H]21", "IC50", "20.4 nM"),
    ("CCOc1cc2c(cc1OC)C(c1ccc(C(=O)N(C)C)cc1)=N[C@@H]1CCOC[C@H]21", "IC50", "57.5 nM"),
    ("CCOc1cc2c(cc1OC)C(c1ccc(C(=O)O)cc1)=N[C@@H]1CCOC[C@H]21", "IC50", "33.9 nM"),
]

Then there is this compound:
Exercise: Reported IC50 for CCOc1cc2c(cc1OC)C(c1ccc(C(=O)N(C(C)C)C(C)C)cc1)=N[C@@H]1CCOC[C@H]21 : what is it?
Solution: 2.75 nM
